- tested-system: T1, recombinant human IL-23R/Fc chimera (R&D Systems) (human, UniProt Q5VWK5 24-355)
- T1 construct: Bought; also called rhIL23RFc
- T1 sequence (looked up): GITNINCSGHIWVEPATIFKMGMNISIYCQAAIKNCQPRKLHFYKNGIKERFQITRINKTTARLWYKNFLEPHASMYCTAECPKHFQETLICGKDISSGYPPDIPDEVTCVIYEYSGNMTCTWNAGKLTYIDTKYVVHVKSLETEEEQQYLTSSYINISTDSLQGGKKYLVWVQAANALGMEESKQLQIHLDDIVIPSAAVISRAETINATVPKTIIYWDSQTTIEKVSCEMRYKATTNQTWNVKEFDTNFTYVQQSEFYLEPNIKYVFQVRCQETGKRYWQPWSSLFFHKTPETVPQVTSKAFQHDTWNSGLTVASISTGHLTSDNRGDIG
- protocol-text: SPR
- Method: A Biacore 3000 biosensor (GE Healthcare) was used to evaluate the interaction of human IL-23R and receptor binders. Immobilization of an anti-human IgG Fc antibody (GE Healthcare) to the CM5 chip (GE Healthcare) was performed using standard amine coupling chemistry, and this modified surface was used to capture a recombinant human IL-23R/Fc fusion protein (R&D Systems). A low-density receptor surface, less than 200 RU, was used for all of the analyses. […]
endpoint-name: Ka (M⁻¹)
Provide the reading as a plain figure in M⁻¹.

Known Ka results, listed for orientation:
>  <binder>
101-80-5H3 ATRIMER complex (designed binder) EPPTQKPKKIVNAKKDVVNTKMFEELKSRLDTLAQEVALLKEQQALQTVCLKGTKVHMKCFLAFTQTKTFHEASEDCISRGGTLSTPQTGSENDALYEYLRQSVGNEAEIWLGLNGSALTNTWVDMTGARIAYKNWEPPAPYHPMAAGVFGENCAVLSGAANGKWFDKRCRDQLPYICQFGIV

>  <Ka / M⁻¹>
1.55e+08

$$$$
>  <binder>
105-08-2F6 ATRIMER complex (designed binder) EPPTQKPKKIVNAKKDVVNTKMFEELKSRLDTLAQEVALLKEQQALQTVCLKGTKVHMKCFLAFTQTKTFHEASEDCISRGGTLSTPQTGSENDALYEYLRQSVGNEAEIWLGLNGSAYTNTWVDMTGARIAYKNWETEITAQPDGGFGYFGENCAVLSGAANGKWFDKRCRDQLPYICQFGIV

>  <Ka / M⁻¹>
1.53e+09

$$$$

Please give the measured Ka for this binder: 105-20-2F12 ATRIMER complex (designed binder, ATRIMER complex: homotrimer of three copies of this chain, joined by the tetranectin coiled coil, not shown: C-terminal tag: Myc/His (pANA4) or HA-StrepII (pANA10)) EPPTQKPKKIVNAKKDVVNTKMFEELKSRLDTLAQEVALLKEQQALQTVCLKGTKVHMKCFLAFTQTKTFHEASEDCISRGGTLSTPQTGSENDALYEYLRQSVGNEAEIWLGLNGSKLTDTWVDMTGARIAYKNWETEITAQPDGGFGYFGENCAVLSGAANGKWFDKRCRDQLPYICQFGIV
5.41e+08

Measured values drawn from patent US20110086806A1 for this set.
